Source listed as ChEMBL document CHEMBL4219211.

This section presents compounds with their documented pIC50 values.
Biological target: Serine/threonine-protein kinase B-raf (Homo sapiens, UniProt P15056, V600E)
Sequence (P15056 2-766 V600E limits assumed): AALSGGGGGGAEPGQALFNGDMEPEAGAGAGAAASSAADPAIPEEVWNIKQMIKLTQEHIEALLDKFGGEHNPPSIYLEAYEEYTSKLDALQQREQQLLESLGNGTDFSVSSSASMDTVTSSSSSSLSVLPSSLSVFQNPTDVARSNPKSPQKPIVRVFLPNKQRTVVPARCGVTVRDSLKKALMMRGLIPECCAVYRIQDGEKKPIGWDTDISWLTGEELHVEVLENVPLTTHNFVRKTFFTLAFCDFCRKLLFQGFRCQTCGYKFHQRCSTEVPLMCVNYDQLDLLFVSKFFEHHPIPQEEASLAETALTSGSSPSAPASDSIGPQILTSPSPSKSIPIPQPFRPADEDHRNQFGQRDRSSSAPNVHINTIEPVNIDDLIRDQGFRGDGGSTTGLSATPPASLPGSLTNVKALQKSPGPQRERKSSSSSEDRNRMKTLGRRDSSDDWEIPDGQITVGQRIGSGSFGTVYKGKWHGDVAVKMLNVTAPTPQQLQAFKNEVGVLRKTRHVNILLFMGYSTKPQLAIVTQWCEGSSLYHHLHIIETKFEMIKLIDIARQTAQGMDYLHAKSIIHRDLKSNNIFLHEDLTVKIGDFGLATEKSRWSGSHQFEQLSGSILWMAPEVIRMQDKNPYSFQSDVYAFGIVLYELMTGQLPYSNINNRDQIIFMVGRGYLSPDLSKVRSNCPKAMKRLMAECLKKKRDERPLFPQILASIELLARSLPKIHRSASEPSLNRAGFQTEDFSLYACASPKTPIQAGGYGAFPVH
Assay: Inhibition of B-Raf V600E mutant (unknown origin) using MEK1 as substrate measured after 2 hrs by ELISA
pIC50: −log10 of the molar value.
Readout name: pIC50

Smiles input: CNC(=O)c1ccc(Sc2ccc(NC(=O)Nc3ccc(Cl)c(C(F)(F)F)c3)cc2)nc1
Numeric result: 7.54

Smiles input: CNC(=O)c1ccc(Sc2cccc(NC(=S)Nc3ccc(Cl)c(C(F)(F)F)c3)c2)nc1
Numeric result: 7.80

Smiles input: CNC(=O)c1ccc(Sc2ccc(NC(=S)Nc3ccc(Cl)cc3)cc2)nc1
Numeric result: 5.75

Smiles input: CNC(=O)c1ccc(Sc2cccc(NC(=S)Nc3ccc(F)c(F)c3)c2)nc1
Numeric result: 6.27

Smiles input: CNC(=O)c1ccc(Sc2ccc(NC(=S)Nc3cccc(C(F)(F)F)c3)cc2)nc1
Numeric result: 6.24

* * *

Target: Mast/stem cell growth factor receptor Kit (Homo sapiens, UniProt P10721)
Sequence (P10721 whole entry): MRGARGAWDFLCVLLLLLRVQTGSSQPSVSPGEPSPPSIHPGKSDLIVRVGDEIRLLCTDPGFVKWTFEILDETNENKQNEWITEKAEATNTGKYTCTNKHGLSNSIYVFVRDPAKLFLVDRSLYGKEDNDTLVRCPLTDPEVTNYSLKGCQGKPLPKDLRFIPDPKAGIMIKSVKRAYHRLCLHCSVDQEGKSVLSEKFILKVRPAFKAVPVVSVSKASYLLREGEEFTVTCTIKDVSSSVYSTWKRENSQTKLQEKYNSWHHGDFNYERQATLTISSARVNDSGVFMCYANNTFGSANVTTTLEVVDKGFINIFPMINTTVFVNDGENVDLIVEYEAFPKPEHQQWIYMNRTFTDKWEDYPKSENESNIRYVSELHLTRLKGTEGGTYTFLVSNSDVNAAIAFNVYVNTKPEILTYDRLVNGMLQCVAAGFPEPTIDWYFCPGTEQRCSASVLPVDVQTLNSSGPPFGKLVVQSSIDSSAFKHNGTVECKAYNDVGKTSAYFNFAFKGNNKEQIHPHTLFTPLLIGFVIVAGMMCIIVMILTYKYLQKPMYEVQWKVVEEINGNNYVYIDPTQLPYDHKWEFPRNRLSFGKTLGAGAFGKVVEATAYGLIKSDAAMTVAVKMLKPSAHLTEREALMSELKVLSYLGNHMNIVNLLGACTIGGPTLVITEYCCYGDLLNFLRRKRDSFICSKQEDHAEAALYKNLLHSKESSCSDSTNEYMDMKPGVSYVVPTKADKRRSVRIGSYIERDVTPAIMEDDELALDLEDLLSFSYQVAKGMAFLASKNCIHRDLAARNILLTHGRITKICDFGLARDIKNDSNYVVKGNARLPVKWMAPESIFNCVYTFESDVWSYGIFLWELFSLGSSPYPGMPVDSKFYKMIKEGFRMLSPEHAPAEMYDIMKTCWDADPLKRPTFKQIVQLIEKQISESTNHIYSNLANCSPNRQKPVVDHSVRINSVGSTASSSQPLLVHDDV

Smiles input: CNC(=O)c1ccc(Sc2ccc(NC(=S)Nc3ccc(Cl)c(C(F)(F)F)c3)cc2)nc1
IC50, nM: 701

* * *

Target: Serine/threonine-protein kinase B-raf (Homo sapiens)
pIC50: −log10 of the molar value.
Decision: pIC50 >= 6 yields true, all other cases yield false.

Smiles input: CNC(=O)c1ccc(Sc2cccc(NC(=S)Nc3ccc(F)c(C(F)(F)F)c3)c2)nc1
Assigned class: true

Smiles input: CNC(=O)c1ccc(Sc2ccc(NC(=S)Nc3ccc(Cl)cc3)cc2)nc1
Assigned class: false

Smiles input: CNC(=O)c1ccc(Sc2cccc(NC(=S)Nc3cc(C(F)(F)F)cc(C(F)(F)F)c3)c2)nc1
Assigned class: true

* * *

pIC50: −log10 of the molar value.
Lab note: pIC50 readings collected with Serine/threonine-protein kinase B-raf (Homo sapiens, UniProt P15056) for the following compounds.
Sequence (P15056 whole entry): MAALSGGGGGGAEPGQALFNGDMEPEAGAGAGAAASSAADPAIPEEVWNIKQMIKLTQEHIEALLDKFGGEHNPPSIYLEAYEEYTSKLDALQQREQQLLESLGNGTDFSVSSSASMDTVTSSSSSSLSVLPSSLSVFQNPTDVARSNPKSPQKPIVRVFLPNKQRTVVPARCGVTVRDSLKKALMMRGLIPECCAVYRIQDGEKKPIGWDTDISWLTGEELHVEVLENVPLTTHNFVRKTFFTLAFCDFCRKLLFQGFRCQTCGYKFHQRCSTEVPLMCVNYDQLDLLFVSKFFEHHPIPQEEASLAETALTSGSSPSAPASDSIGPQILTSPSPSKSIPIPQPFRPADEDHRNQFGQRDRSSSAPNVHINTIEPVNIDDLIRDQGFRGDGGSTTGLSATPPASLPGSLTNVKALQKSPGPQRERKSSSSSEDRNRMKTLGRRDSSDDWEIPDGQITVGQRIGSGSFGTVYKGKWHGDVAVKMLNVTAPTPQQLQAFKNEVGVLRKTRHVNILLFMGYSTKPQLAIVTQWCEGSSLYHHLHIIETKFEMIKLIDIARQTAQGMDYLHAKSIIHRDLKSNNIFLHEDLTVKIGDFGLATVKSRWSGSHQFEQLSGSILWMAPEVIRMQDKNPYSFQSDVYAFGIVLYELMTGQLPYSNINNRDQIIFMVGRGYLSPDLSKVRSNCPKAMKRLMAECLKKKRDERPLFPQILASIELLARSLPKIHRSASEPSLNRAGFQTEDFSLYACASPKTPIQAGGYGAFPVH

Smiles input: CNC(=O)c1ccc(Sc2ccc(NC(=S)Nc3ccc(OC(F)(F)F)cc3)cc2)nc1
Tested target: Serine/threonine-protein kinase B-raf (Homo sapiens, UniProt P15056)
pIC50: 5.01
//
Smiles input: CNC(=O)c1ccc(Sc2ccc(NC(=S)Nc3ccc(F)c(C(F)(F)F)c3)cc2)nc1
Tested target: Serine/threonine-protein kinase B-raf (Homo sapiens, UniProt P15056)
pIC50: 7.48
//
Smiles input: CNC(=O)c1ccc(Sc2cccc(NC(=S)Nc3ccc(F)c(Cl)c3)c2)nc1
Tested target: Serine/threonine-protein kinase B-raf (Homo sapiens, UniProt P15056)
pIC50: 6.55
//
Smiles input: CNC(=O)c1ccc(Sc2cccc(NC(=S)Nc3ccc(OC(F)(F)F)cc3)c2)nc1
Tested target: Serine/threonine-protein kinase B-raf (Homo sapiens, UniProt P15056)
pIC50: 5.23

* * *

Lab note: IC50 readings collected with Vascular endothelial growth factor receptor 2 (Homo sapiens, UniProt P35968) for the following compounds.
Sequence (P35968 whole entry): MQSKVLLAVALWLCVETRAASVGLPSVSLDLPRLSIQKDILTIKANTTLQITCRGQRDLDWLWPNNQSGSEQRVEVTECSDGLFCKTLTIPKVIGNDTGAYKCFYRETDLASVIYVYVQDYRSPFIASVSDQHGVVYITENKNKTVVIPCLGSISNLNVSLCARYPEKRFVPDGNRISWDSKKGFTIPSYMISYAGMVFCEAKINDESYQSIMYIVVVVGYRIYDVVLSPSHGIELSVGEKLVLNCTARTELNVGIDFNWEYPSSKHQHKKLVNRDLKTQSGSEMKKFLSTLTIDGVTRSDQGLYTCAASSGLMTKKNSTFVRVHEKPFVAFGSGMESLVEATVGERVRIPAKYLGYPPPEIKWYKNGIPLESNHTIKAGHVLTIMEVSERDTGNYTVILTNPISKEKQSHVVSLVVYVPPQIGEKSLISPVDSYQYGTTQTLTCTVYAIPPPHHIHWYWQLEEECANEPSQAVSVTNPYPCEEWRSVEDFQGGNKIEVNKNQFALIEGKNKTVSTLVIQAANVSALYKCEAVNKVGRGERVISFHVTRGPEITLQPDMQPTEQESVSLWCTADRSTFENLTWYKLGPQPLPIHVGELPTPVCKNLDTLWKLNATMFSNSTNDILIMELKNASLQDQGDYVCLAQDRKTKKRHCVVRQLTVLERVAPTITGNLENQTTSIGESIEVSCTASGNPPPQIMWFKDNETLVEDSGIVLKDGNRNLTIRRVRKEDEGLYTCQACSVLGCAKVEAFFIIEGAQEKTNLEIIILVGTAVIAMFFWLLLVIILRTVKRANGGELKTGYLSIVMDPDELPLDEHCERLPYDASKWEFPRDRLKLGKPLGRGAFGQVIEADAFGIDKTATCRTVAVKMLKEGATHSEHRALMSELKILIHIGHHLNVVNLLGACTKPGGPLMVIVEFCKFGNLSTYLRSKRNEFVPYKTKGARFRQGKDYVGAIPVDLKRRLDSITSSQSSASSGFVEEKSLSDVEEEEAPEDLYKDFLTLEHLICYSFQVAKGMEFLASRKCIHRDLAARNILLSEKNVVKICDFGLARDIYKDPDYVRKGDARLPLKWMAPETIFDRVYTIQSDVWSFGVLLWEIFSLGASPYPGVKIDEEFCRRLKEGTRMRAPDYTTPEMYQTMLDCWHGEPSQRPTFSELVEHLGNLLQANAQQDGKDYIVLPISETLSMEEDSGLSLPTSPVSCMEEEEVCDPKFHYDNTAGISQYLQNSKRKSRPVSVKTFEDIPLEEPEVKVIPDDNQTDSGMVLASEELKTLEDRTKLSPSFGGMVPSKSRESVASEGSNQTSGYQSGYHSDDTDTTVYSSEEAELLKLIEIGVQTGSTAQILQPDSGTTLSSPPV

Smiles input: CNC(=O)c1ccc(Sc2cccc(NC(=S)Nc3ccc(OC(F)(F)F)cc3)c2)nc1
Tested target: Vascular endothelial growth factor receptor 2 (Homo sapiens, UniProt P35968)
Comparison operator: >
IC50, nM: 10000
--
Smiles input: CNC(=O)c1ccc(Sc2cccc(NC(=S)Nc3ccc(F)c(C(F)(F)F)c3)c2)nc1
Tested target: Vascular endothelial growth factor receptor 2 (Homo sapiens, UniProt P35968)
Comparison operator: =
IC50, nM: 61
--
Smiles input: CNC(=O)c1ccc(Sc2cccc(NC(=S)Nc3ccc(Cl)c(C(F)(F)F)c3)c2)nc1
Tested target: Vascular endothelial growth factor receptor 2 (Homo sapiens, UniProt P35968)
Comparison operator: =
IC50, nM: 63
--
Smiles input: CNC(=O)c1ccc(Sc2cccc(NC(=S)Nc3cc(C(F)(F)F)cc(C(F)(F)F)c3)c2)nc1
Tested target: Vascular endothelial growth factor receptor 2 (Homo sapiens, UniProt P35968)
Comparison operator: =
IC50, nM: 887
--
Smiles input: CNC(=O)c1ccc(Sc2ccc(NC(=S)Nc3ccc(OC(F)(F)F)cc3)cc2)nc1
Tested target: Vascular endothelial growth factor receptor 2 (Homo sapiens, UniProt P35968)
Comparison operator: >
IC50, nM: 10000

* * *

Molecular target: Serine/threonine-protein kinase B-raf (Homo sapiens, UniProt P15056, V600E)
Experiment: Inhibition of B-Raf V600E mutant (unknown origin) using MEK1 as substrate measured after 2 hrs by ELISA

Smiles input: CNC(=O)c1ccc(Sc2cccc(NC(=S)Nc3ccc(Cl)cc3)c2)nc1
Measure unit: nM
IC50: 857
//
Smiles input: CNC(=O)c1ccc(Sc2ccc(NC(=O)Nc3cc(C(F)(F)F)cc(C(F)(F)F)c3)cc2)nc1
Measure unit: nM
IC50: 196
//
Smiles input: CNC(=O)c1ccc(Sc2cccc(NC(=S)Nc3cc(C(F)(F)F)cc(C(F)(F)F)c3)c2)nc1
Measure unit: nM
IC50: 169
